Ref: paper PMC7024253

Tested on: A. fumigatus ATCC46645
Test: Antifungal assay against A. fumigatus
Assay type: cell-based, Aspergillus fumigatus
Conditions: A. fumigatus ATCC 46645; MIC = lowest concentration inhibiting ≥ 95% of growth; top concentration 96 μg/mL (64 μg/mL for 3 and 8)
Would you kindly list MIC Af for each of these molecules?

Example cases with answers are listed next.
{"columns": ["molecule", "measured.parameter", "experimental.result"],
 "data": [
  ["CC1(C)OC2=C(CC1Cl)C(=O)c1c(O)cc(O)cc1C2=O (stereo not drawn) [Compound 7, 3-chloro-6,8-dihydroxy-8-α-lapachone]", "MIC Af", ">96 µg/mL"],
  ["CC(=CCCC(C)=CCC12OC(C)(C)C(Cl)CC1(Cl)C(=O)c1c(O)cc(O)cc1C2=O)CO (stereo not shown) [Compound 10, 18-hydroxynapyradiomycin A1]", "MIC Af", ">96 µg/mL"],
  ["COc1cc(O)c2c(c1)C(=O)C1=C(CC(Cl)C(C)(C)O1)C2=O (stereo not drawn) [Compound 8, 3-chloro-6-hydroxy-8-methoxy-α-lapachone]", "MIC Af", ">64 µg/mL"]
]}

In the following, a different molecule is considered.
[in] Given CC1(C)O[C@@]2(C[C@H]3C(C)(C)[C@@H](Cl)CC[C@]3(C)O)C(=O)c3cc(O)cc(O)c3C(=O)[C@@]2(Cl)C[C@H]1Cl , state its recorded MIC Af.
[out] >96 µg/mL

----------
Test system: human liver adenocarcinoma cell line (HepG2)
Assay: Cytotoxicity assay against HepG2
Type: cell-based
Conditions: HepG-2 cytotoxicity; 10 two-fold dilutions starting at 150, 100 (3, 8) or 30.0 μg/mL (1, 5)
measured.parameter: pIC50
One number for each entry, as −log10 of the molar value.

Example cases with answers are listed next.
{"columns": ["compound", "pIC50"],
 "data": [
  ["CC1(C)O[C@@]2(C[C@H]3C(C)(C)[C@@H](Cl)CC[C@]3(C)O)C(=O)c3cc(O)cc(O)c3C(=O)C2=C[C@H]1Cl [Compound 2, Napyradiomycin B7a]", 4.38],
  ["CC(=CCCC(C)=CCC12OC(C)(C)C(Cl)CC1(Cl)C(=O)c1c(O)cc(O)cc1C2=O)CO (stereo not shown) [Compound 10, 18-hydroxynapyradiomycin A1]", 4.19],
  ["COc1cc(O)c2c(c1)C(=O)C1=C(CC(Cl)C(C)(C)O1)C2=O (stereo not drawn) [Compound 8, 3-chloro-6-hydroxy-8-methoxy-α-lapachone]", 4.52]
]}

In the following, a different compound is considered.
[in] Given CC1(C)OC2=C(CC1Cl)C(=O)c1c(O)cc(O)cc1C2=O (stereo not drawn) [Compound 7, 3-chloro-6,8-dihydroxy-8-α-lapachone] , state its recorded pIC50.
[out] 3.73

----------
Tested on: E. coli ATCC 25922
Test: Antibacterial assay against E. coli
Format: cell-based, Escherichia coli
Conditions: MIC = lowest concentration inhibiting ≥ 95% of growth, top concentration 96 μg/mL (64 μg/mL for 3 and 8)
measured.parameter: MIC Ec

Example cases with answers are listed next.
{"columns": ["compound", "experimental.result"],
 "data": [
  ["CC(=CCCC(C)=CCC12OC(C)(C)C(Cl)CC1(Cl)C(=O)c1c(O)cc(O)cc1C2=O)CO (stereo not shown) [Compound 10, 18-hydroxynapyradiomycin A1]", ">96 µg/mL"],
  ["COc1cc(O)c2c(c1)C(=O)C1=C(CC(Cl)C(C)(C)O1)C2=O (stereo not drawn) [Compound 8, 3-chloro-6-hydroxy-8-methoxy-α-lapachone]", ">64 µg/mL"],
  ["CC1(C)O[C@@]2(C[C@H]3C(C)(C)[C@@H](Cl)CC[C@]3(C)O)C(=O)c3cc(O)cc(O)c3C(=O)[C@@]2(Cl)C[C@H]1Cl [Compound 13, napyradiomycin B4]", ">96 µg/mL"]
]}

In the following, a different compound is considered.
[in] Given CC1(C)OC2=C(CC1Cl)C(=O)c1c(O)cc(O)cc1C2=O (stereo not drawn) [Compound 7, 3-chloro-6,8-dihydroxy-8-α-lapachone] , state its recorded MIC Ec.
[out] >96 µg/mL
